Test system: mouse myoblasts (C2C12) myotubes
PROCEDURE TEXT: C2C12 myotube atrophy induced by C26 cell culture medium (HE staining, myotube diameter)
Assay type: cell-based
APPLIED CONDITIONS: 25 μM, 48 h, C26 medium-induced C2C12 myotubes
# maps each entry to its Myotube atrophy reversal rate (%)
Just the number please, in %, no unit attached.

{"COMPOUND": "CCCCCCCCCCCCSSC(=S)N1Cc2ccccc2C1", "ASSAY METRIC": "Myotube atrophy reversal rate (%)", "VALUE UNIT": "%", "NUMERIC VALUE": 12.22}

Exercise: Quickly give me recorded Myotube atrophy reversal rate (%) for CCCCCCCCCCCCSSC(=S)N1CCN(C)CC1
Key: 31.39

Exercise: Quickly give me recorded Myotube atrophy reversal rate (%) for CCCCCCCCCCCCCCCCSSC(=S)N1CCCC1
Key: 41.05

Entry source: patent US12269808B2
